Measured PI3Kδ IH % @ 1 uM of individual entries
biological target: p110δ/p85α (Homo sapiens); assay: Transcreener KINASE Assay, kinase inhibition of p110δ/p85α; assay type: biochemical; settings: 1 uM test compound
Sequence (O00329 whole entry): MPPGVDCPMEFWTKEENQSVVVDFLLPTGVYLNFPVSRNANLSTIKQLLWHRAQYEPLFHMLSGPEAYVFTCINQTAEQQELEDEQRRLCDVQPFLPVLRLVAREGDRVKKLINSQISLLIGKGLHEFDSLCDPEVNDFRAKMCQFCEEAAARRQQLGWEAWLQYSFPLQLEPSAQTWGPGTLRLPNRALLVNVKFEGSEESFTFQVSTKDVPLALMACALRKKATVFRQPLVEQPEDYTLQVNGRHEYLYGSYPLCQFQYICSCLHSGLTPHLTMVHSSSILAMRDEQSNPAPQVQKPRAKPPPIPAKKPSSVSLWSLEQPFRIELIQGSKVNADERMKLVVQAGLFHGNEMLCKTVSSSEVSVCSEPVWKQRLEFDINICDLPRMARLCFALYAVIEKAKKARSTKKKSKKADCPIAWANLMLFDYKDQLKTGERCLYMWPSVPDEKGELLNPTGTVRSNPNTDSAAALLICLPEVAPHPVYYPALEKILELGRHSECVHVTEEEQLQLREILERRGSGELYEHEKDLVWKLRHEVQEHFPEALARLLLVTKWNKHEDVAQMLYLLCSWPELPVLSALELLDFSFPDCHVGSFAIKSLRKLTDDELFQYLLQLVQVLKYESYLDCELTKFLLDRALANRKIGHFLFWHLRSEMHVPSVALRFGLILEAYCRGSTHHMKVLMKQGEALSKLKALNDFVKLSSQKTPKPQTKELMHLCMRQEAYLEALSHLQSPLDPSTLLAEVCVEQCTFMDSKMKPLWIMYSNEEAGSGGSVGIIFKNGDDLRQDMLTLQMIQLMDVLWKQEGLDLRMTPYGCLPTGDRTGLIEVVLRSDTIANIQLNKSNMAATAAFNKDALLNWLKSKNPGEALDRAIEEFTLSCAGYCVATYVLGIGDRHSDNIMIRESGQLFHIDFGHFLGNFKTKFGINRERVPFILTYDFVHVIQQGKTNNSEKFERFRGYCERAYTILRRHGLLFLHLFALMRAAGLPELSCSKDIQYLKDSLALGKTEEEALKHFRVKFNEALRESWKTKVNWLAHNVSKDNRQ
Sequence (P27986 whole entry partner): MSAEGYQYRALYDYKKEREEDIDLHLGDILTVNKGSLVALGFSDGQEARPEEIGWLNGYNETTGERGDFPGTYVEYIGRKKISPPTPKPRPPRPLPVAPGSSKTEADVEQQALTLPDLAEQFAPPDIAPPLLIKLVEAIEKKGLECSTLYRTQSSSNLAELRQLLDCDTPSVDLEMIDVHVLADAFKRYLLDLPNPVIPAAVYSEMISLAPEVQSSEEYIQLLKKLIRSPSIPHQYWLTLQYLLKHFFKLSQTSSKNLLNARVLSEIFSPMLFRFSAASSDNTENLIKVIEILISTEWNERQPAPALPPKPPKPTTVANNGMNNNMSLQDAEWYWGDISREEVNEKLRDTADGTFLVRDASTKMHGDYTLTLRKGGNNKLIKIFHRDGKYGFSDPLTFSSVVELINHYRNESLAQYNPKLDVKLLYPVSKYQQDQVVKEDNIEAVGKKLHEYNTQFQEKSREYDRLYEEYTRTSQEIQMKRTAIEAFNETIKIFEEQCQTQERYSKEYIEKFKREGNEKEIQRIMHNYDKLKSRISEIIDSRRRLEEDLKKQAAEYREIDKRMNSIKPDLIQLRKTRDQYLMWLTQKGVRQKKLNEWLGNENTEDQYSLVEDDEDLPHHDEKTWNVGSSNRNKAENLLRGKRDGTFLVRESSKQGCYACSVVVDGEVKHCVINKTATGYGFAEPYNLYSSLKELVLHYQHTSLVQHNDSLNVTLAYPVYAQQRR
Enter your answer as a number in %; do not include the unit.

Requested read-out: PI3Kδ IH % @ 1 uM. Entry: CC(Nc1ncnc2[nH]cc(C#N)c12)c1cc2ccc(Cl)n2c(=O)n1-c1cccc(F)c1 (stereo not shown)
99.0

Requested read-out: PI3Kδ IH % @ 1 uM. Entry: C[S+]([O-])c1c[nH]c2ncnc(N3C[C@@H](F)C[C@H]3c3nn4ccc(Cl)c4c(=O)n3-c3ccccc3)c12 (stereo partly shown)
98.9

Requested read-out: PI3Kδ IH % @ 1 uM. Entry: CNc1ncnc(N2CCC[C@H]2c2nn3ccc(Cl)c3c(=O)n2-c2ccccc2)n1
90.9

Requested read-out: PI3Kδ IH % @ 1 uM. Entry: O=c1c2c(F)ccn2nc([C@@H]2CCCN2c2ncnc3[nH]cnc23)n1-c1ccccn1
100.0

Requested read-out: PI3Kδ IH % @ 1 uM. Entry: Nc1ncc(C(F)(F)F)c(N2CCC[C@H]2c2nn3ccc(CO)c3c(=O)n2-c2ccccc2)n1
82.3

Requested read-out: PI3Kδ IH % @ 1 uM. Entry: CC(=O)c1cnc(N)nc1N[C@H](C)c1cc2ncc(Cl)n2c(=O)n1-c1ccccc1 (single isomer, unassigned)
98.8

Requested read-out: PI3Kδ IH % @ 1 uM. Entry: C[C@@H](Nc1nc(N)ncc1C#N)c1cc2ncc(Cl)n2c(=O)n1-c1ccccc1
91.0

Requested read-out: PI3Kδ IH % @ 1 uM. Entry: CC(Nc1ncnc2[nH]cc(C#N)c12)c1cn2ccc(Cl)c2c(=O)n1-c1cccc(F)c1 (stereo not shown) [Compound 277]
99.5

Requested read-out: PI3Kδ IH % @ 1 uM. Entry: CC(=O)c1c[nH]c2ncnc(N3C[C@@H](F)C[C@H]3c3nn4ccc(Cl)c4c(=O)n3-c3cccc(F)c3)c12
96.5

Requested read-out: PI3Kδ IH % @ 1 uM. Entry: CC(Nc1ncnc2[nH]cc(F)c12)c1cc2ncc(Cl)n2c(=O)n1-c1ccccc1 (single isomer, unassigned) [Compound 450]
99.3

Requested read-out: PI3Kδ IH % @ 1 uM. Entry: CC(Nc1nc(N)ncc1C#N)c1cn2ccc(F)c2c(=O)n1-c1ccccc1 (single isomer, unassigned)
96.1

Requested read-out: PI3Kδ IH % @ 1 uM. Entry: C[S+]([O-])c1c[nH]c2ncnc(N3CC[C@H]3c3nn4ccc(F)c4c(=O)n3-c3ccccc3)c12 (stereo partly shown)
85.1

Requested read-out: PI3Kδ IH % @ 1 uM. Entry: COc1ncc(-c2c[nH]c3ncnc(NC(C)c4cc5ncc(Cl)n5c(=O)n4-c4ccccc4)c23)cn1 (stereo not shown)
99.5

Requested read-out: PI3Kδ IH % @ 1 uM. Entry: Nc1nc(N2CCC[C@H]2c2nn3ccc(Cl)c3c(=O)n2-c2ccccc2)ncc1C(F)(F)F
8.4

Requested read-out: PI3Kδ IH % @ 1 uM. Entry: CC(Nc1ncnc2[nH]cc(C#N)c12)c1cc2ncc(Cl)n2c(=O)n1-c1cccc(F)c1 (stereo not shown)
77.5

Requested read-out: PI3Kδ IH % @ 1 uM. Entry: Nc1ncc(-c2n[nH]c3ncnc(N4CCC[C@H]4c4nn5ccc(Cl)c5c(=O)n4-c4ccccc4)c23)cn1
97.2

Requested read-out: PI3Kδ IH % @ 1 uM. Entry: O=c1c2c(Cl)ccn2nc([C@@H]2CCCN2c2ncnc3[nH]cnc23)n1Cc1ccccn1
98.5

Requested read-out: PI3Kδ IH % @ 1 uM. Entry: CC(=O)c1cnc(N)nc1N1C[C@H](C)[C@H]1c1nn2ccc(C#N)c2c(=O)n1-c1ccccc1
95.4
